Molecular target: T1, human MSLN-hFc protein (Acro, Cat. No. MSN-H5253) (human, UniProt Q13421 296-580)
T1 construct: the method names the coated protein as human MSLN-hFc (Acro); also called human MSLN full-length protein
T1 sequence (Q13421 other isoform, or with tags, fused parts or gaps limits assumed): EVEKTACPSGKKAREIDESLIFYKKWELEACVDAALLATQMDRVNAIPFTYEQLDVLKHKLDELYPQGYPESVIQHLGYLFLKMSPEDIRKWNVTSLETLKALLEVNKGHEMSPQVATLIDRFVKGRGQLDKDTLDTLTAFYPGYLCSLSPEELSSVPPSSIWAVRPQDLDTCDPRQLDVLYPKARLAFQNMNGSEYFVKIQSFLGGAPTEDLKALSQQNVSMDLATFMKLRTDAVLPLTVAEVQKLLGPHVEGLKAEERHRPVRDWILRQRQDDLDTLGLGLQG
Test: ELISA on coated antigen, antibody 0.001 nM
Listing of recorded OD450 by entry.
assay-endpoint: OD450 (OD450)

# binder, units-label, measured-result
rows = [
    ("F7.44.20-H8 (scFv, not shown: small tags and cut ends, also called S009-F7.44.20 humanized antibody VH1a + VL4) scFv: EVQLVQSGAEVKKPGASVKVSCKASGYTFTDYNMDWVRQAPGQGLEWMGDINPSTGGTIYNQKFQGRVTMTEDKSTSTVYMELSSLRSEDTAVYYCARRRIGTGYFDVWGQGTTVTVSSGGGGSGGGGSGGGGSEIVLTQSPATLSLSPGERATLSCSASSSVISSYLSWYQQKPGSSPRLLIYRTSNLASGIPARFSGSGSGTDYTLTISSLEPEDFAVYYCHQWSSFPYTFGGGTKVEIK", "OD450", 0.04),
    ("F7.44.20-H13 (scFv, not shown: small tags and cut ends, also called S009-F7.44.20 humanized antibody VH2a + VL1) scFv: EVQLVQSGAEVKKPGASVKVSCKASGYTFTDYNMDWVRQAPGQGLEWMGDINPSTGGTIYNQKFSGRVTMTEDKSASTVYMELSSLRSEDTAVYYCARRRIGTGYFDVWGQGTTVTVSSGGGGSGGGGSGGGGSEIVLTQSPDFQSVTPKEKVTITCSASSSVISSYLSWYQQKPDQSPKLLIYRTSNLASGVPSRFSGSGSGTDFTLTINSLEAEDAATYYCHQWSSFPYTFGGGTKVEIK", "OD450", 0.06),
    ("F7.44.20-H5 (scFv, not shown: small tags and cut ends, also called S009-F7.44.20 humanized antibody VH1a + VL1) scFv: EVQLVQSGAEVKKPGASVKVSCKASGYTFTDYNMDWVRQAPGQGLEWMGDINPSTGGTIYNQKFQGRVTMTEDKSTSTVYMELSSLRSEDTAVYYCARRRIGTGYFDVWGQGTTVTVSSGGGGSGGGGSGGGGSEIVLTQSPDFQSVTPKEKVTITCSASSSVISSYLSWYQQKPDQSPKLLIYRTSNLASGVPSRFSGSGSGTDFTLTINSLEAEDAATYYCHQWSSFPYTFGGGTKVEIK", "OD450", 0.04),
]
